Values compiled from patent US20230203156A1.

- study_system: T1, human MDR1 (Homo sapiens, UniProt P08183)
- T1 construct: expressed in transfected cells
- assay_name: Antibody binding/titration to 293T cells overexpressing human MDR1 (FACS)
- test_conditions: 293T cell line overexpressing human MDR1
readout: binding to human MDR1 (hB1)

B1.129: anti-MDR1 antibody, Mouse; VH SEQ ID NO:56, VL SEQ ID NO:60 (antibody, listed as Mus musculus, V domains shown) VH: EVQLQQSGPELVKPGASVKMSCKASGYTFSTYVIHWVKQKPGQGLEWIGYIYPYNDYTKYNEKFKDKATLTSDKSSSTAYMEIRSLTSEDSAVYYCSRAYYGNLVGYGVDYWGQGTSVTVSS VL: QIVLTQSPAILPASPGEKVTMTCRASSSVSFIYWYQQRPGSSPKPWIFATSNLASGVPARFSGSGSGTSYSLTISRVEAEDAATYYCHQWGSNLPTFGGGTKLEIK ... binds
